Measured Relative Activity by item
# measured.target: L-proline-4-hydroxylase (Dactylosporangium salmoneum)
# Sequence (A0ABP5TRQ3 entry or part of it): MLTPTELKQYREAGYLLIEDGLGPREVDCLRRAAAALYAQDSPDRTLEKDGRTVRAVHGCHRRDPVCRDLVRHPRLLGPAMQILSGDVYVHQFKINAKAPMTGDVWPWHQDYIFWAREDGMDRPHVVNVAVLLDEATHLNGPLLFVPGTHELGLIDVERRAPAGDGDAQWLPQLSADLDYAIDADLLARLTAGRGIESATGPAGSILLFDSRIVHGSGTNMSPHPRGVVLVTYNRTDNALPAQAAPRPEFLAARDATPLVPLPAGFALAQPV
# test.protocol: Substrate omission and addition tests on the enzyme reaction (indispensable compounds, promoters, inhibitors)
# Type: biochemical, Dactylosporangium sp. RH1
# conditions: component not added (omitted); 80 mM TES pH 7.5, 30° C., 15 minutes; standard reaction mixture = 100
measured.quantity: Relative Activity

- O=C(O)CCC(=O)C(=O)O: 0
- O=C(O)[C@@H]1CCCN1: 0
- O=C1O[C@H]([C@@H](O)CO)C(O)=C1O: 51
- [Fe+2]: 0
